- assay_text: A quantitative high throughput screen for small molecules that induce DNA re-replication in MCF 10a normal breast cells. Note: nearly all actives have a fitted effect of over 50% in size.
- assay_conditions: MCF 10A DNA re-replication, Hoechst nuclear intensity, 48 h; series mostly up to 46.1 µM
The campaign covered roughly 350,000 compounds. About 9,900 (2.8%) were called active. Inconclusive results (about 15%) are left out. Calls come from the whole dose curve; as a rule, active = well fitted activation curve with a large enough effect; inconclusive = small, poorly fitted or top-dose-only effect; inactive = no such curve, though single readings can be large or run the other way. This is one part of a sample in which actives are shown more often than they occur.
Just give me one of these, please: T (active), F (inactive)

Check out these entries, answers already filled in.
* NS(=O)(=O)c1ccc(CCNC(=O)c2ccc(Cl)c(S(=O)(=O)N3CCCCCC3)c2)cc1 | F
* CCN(C(=O)COC(=O)c1ccccc1O)c1cccc2ccccc12 | F
* CC(=O)Nc1ccc(NC(=O)CN2CCCC(C)C2)c(Cl)c1 (centres undefined) | F
* Cc1cccc(COc2ccccc2/C=N/Nc2ccc([N+](=O)[O-])cc2)c1 | T
* COC(=O)C1=CO[C@@H](O[C@@H]2O[C@H](CO)[C@@H](O)[C@H](O)[C@H]2O)C2C1C[C@H](O)[C@@H]2C (some centres undefined) | F
* CC(C)c1ccc2c(c1)c(SC(C)(C)C)c(CC(C)(C)C(=O)O)n2Cc1ccc(Cl)cc1 | T
* CCCC1=Nc2cc(C(=O)NCc3ccco3)ccc2Sc2ccccc21 | T
* CCN(CC)S(=O)(=O)c1ccc(NC(=O)CN(c2cccc(F)c2)S(C)(=O)=O)cc1 | F
* COc1cccc(N(CC(=O)Nc2cccc(F)c2)S(C)(=O)=O)c1 | F
* CCC1=Nc2cc(C(=O)NCCCN3CCOCC3)ccc2Sc2ccc(Br)cc21 | F

Answer briefly: the call reported for "CN(CCc1ccccc1)C(=O)c1cccc(NC(=O)Cc2ccc([N+](=O)[O-])cc2)c1" in this assay.
F

Answer briefly: the call reported for "CC(=O)c1ccc(OCCN2CCOCC2)cc1" in this assay.
F

Answer briefly: the call reported for "Cc1ccc(CSc2nc(-c3ccccc3)c(C#N)c(=O)[nH]2)cc1" in this assay.
F

From: PubChem BioAssay AID624296
